assay: qHTS of pediatric cancer cell lines to identify multiple opportunities for drug repurposing: Primary screen for MG 63 (6-TG R) cells (AID 1347105); conditions: MG 63 (6-TG R) viability, CellTiter-Glo, 48 h; series mostly up to 46 µM; note: nearly all actives have a fitted effect of over 50% in size
Records with an inconclusive call do not appear. Activity calls are given as the source filed them. Calls come from the whole dose curve; as a rule, active = well fitted cell-killing curve with a large enough effect; inconclusive = small, poorly fitted or top-dose-only effect; inactive = no such curve, though single readings can be large or run the other way.
Field 'call' accepts 1.0 = active, 0.0 = inactive

Some entries whose results are on file:
COc1cc2c(Oc3ccc(-c4cnc(Nc5ccc(F)cc5)n(C)c4=O)cc3F)ccnc2cc1OCCCN1CCOCC1
1.0
Cc1cc(Nc2ncnc3ccc(-c4ccc(CNCCS(C)(=O)=O)o4)cc23)ccc1Oc1ccn2ncnc2c1
1.0
Cc1cc(Nc2cc(N3CCN(C)CC3)nc(C=Cc3ccccc3)n2)n[nH]1
1.0
Cc1cnc(Nc2ccc(F)cc2Cl)nc1-c1c[nH]c(C(=O)N[C@H](CO)c2cccc(Cl)c2)c1
1.0
O=C(Nc1nc2cccc(-c3ccc(CN4CCS(=O)(=O)CC4)cc3)n2n1)C1CC1
1.0

(Q) Tell me the assay call for CNc1nccc(-c2cccnc2Oc2cc(C(=O)Nc3cccc(C(F)(F)F)c3)ccc2C)n1 please.
(A) 1.0

(Q) Tell me the assay call for CN(C)CC=CC(=O)Nc1cc2c(Nc3ccc(F)c(Cl)c3)ncnc2cc1O[C@H]1CCOC1 please.
(A) 1.0

(Q) Tell me the assay call for CC(=O)OCC(=O)[C@@]1(O)[C@H](C)C[C@H]2[C@@H]3C=C(C)C4=Cc5c(cnn5-c5ccccc5)C[C@]4(C)[C@@H]3[C@@H](O)C[C@@]21C please.
(A) 1.0

(Q) Tell me the assay call for COc1cccc2nc(-c3cccs3)nc(NN3C(=O)C=C(C)C3=O)c12 please.
(A) 1.0

(Q) Tell me the assay call for O=C(O)C1(Cc2cccc(Nc3nccs3)n2)CCC(Oc2cccc(Cl)c2F)CC1 (configuration not stated) please.
(A) 1.0

(Q) Tell me the assay call for CC(C)(O)CCc1ccc(OCc2cc(-c3cccc(OC(F)F)c3)c3ncccc3c2)cc1 please.
(A) 0.0

(Q) Tell me the assay call for COc1cc2ncnc(Nc3ccc(F)c(Cl)c3)c2cc1NC(=O)C=CCN1CCCCC1 please.
(A) 0.0

(Q) Tell me the assay call for O=c1[nH]nc(Sc2ncc([N+](=O)[O-])s2)n1-c1ccc2c(c1)OCCO2 please.
(A) 1.0

(Q) Tell me the assay call for Nc1ccn([C@@H]2CS[C@H](CO)O2)c(=O)n1 please.
(A) 0.0

(Q) Tell me the assay call for Cn1c2ccccc2c2c3c(c4c5ccccc5n(CCC#N)c4c21)CNC3=O please.
(A) 1.0

(Q) Tell me the assay call for O=C(c1ccc(Nc2nccc(-c3cc4ccccc4s3)n2)cc1)N1CCC(N2CCCC2)CC1 please.
(A) 1.0

(Q) Tell me the assay call for CCOc1ccccc1OCCNC(C)Cc1ccc(OC)c(S(N)(=O)=O)c1 (configuration not stated) please.
(A) 0.0

(Q) Tell me the assay call for COC(=O)C1=C(C)NC(C)=C(C(=O)OCCN2CCN(C(c3ccccc3)c3ccccc3)CC2)C1c1cccc([N+](=O)[O-])c1 (configuration not stated) please.
(A) 0.0

(Q) Tell me the assay call for C[C@@]12O[C@@H](C[C@]1(O)CO)n1c3ccccc3c3c4c(c5c6ccccc6n2c5c31)CNC4=O please.
(A) 1.0

(Q) Tell me the assay call for CN(c1ncccc1CNc1nc(Nc2ccc3c(c2)CC(=O)N3)ncc1C(F)(F)F)S(C)(=O)=O please.
(A) 1.0

(Q) Tell me the assay call for CC(C)=CCCC(C)=CCCC(C)=CCSc1ccccc1C(=O)O please.
(A) 1.0

(Q) Tell me the assay call for O=C(Nc1cn[nH]c1-c1nc2ccc(CN3CCOCC3)cc2[nH]1)NC1CC1 please.
(A) 1.0

(Q) Tell me the assay call for COc1cccc2c(NCc3ccccc3)nc(-n3c(N)nc4ccccc43)nc12 please.
(A) 1.0

(Q) Tell me the assay call for CC(C)c1noc(N2CCC(COc3ccc(-c4ccc(S(C)(=O)=O)cc4)nc3)CC2)n1 please.
(A) 0.0

(Q) Tell me the assay call for COCCOc1ccc2c(c1)ncn2-c1ccc2cccc(N3CCC(N)CC3)c2n1 please.
(A) 1.0

(Q) Tell me the assay call for Nc1ccccc1NC(=O)c1ccc(CNc2nccc(-c3cccnc3)n2)cc1 please.
(A) 1.0
